Target: SIRT2 (Homo sapiens, UniProt Q8IXJ6)
Construct: recombinant active enzymes SIRT1, SIRT2, and the catalytically active fragment of SIRT3
Sequence (Q8IXJ6 1-389): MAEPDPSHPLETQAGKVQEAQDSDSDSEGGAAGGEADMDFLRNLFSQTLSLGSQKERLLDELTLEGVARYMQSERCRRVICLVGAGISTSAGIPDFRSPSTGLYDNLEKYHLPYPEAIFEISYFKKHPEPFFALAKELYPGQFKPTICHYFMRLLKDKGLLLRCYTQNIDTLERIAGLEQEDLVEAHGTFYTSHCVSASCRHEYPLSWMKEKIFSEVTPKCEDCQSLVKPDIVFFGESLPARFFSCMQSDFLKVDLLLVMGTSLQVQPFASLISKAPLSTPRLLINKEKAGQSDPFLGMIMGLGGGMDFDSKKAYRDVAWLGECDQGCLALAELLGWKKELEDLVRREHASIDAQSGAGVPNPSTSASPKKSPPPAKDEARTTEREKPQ
Experiment: Fluor-de-Lys biochemical sirtuin deacetylation assay, SIRT2
Conditions: 10 μM; sulfone, sulfoxide, thioether derivatives of C2-8 scaffold
Binary classification by inhibition at 10 µM, with 20% as an inclusive lower bound for y; all other cases are n.

>  <molecule>
COc1ccc(C[S+]([O-])c2cccc(C(=O)Nc3ccc(C#N)cc3)c2)cc1 (stereo not shown)

>  <assigned-category>
y

$$$$
>  <molecule>
CSc1ccc(CSc2cccc(C(=O)Nc3ccc(C#N)cc3)c2)cc1

>  <assigned-category>
y

$$$$
>  <molecule>
O=C(Nc1ccc(Cl)cc1)c1cccc(S(=O)(=O)Cc2ccc(Cl)cc2)c1

>  <assigned-category>
n

$$$$
>  <molecule>
CS(=O)(=O)c1ccc(NC(=O)c2cccc(S(=O)(=O)Cc3ccc(Cl)cc3)c2)cc1

>  <assigned-category>
n

$$$$
>  <molecule>
N#Cc1ccc(NC(=O)c2cccc(S(=O)(=O)Cc3ccc(Cl)cc3)c2)cc1

>  <assigned-category>
y

$$$$
>  <molecule>
O=C(Nc1ccc(Br)cc1)c1cccc(S(=O)(=O)Cc2ccc(Cl)cc2)c1

>  <assigned-category>
n

$$$$
>  <molecule>
COc1ccc(CS(=O)(=O)c2cccc(C(=O)Nc3ccc(C#N)cc3)c2)cc1

>  <assigned-category>
y

$$$$
>  <molecule>
N#Cc1ccc(NC(=O)c2cccc(SCc3ccc(Cl)cc3)c2)cc1

>  <assigned-category>
y

$$$$
>  <molecule>
C[S+]([O-])c1ccc(NC(=O)c2cccc(S(=O)(=O)Cc3ccc(Cl)cc3)c2)cc1 (stereo not shown)

>  <assigned-category>
y

$$$$
>  <molecule>
CC(=O)c1ccc(NC(=O)c2cccc(S(=O)(=O)Cc3ccc(Cl)cc3)c2)cc1

>  <assigned-category>
y

$$$$
>  <molecule>
O=C(Nc1ccc(Cl)nn1)c1cccc(S(=O)(=O)Cc2ccc(Cl)cc2)c1

>  <assigned-category>
n

$$$$
>  <molecule>
C[S+]([O-])c1ccc(NC(=O)c2cccc(SCc3ccc(Cl)cc3)c2)cc1 (stereo not shown)

>  <assigned-category>
y

$$$$
>  <molecule>
C[S+]([O-])c1ccc(NC(=O)c2cccc([S+]([O-])Cc3ccc(Cl)cc3)c2)cc1 (stereo not shown)

>  <assigned-category>
y

$$$$
>  <molecule>
N#Cc1ccc(NC(=O)c2cccc([S+]([O-])Cc3ccc(Cl)cc3)c2)cc1 (stereo not shown)

>  <assigned-category>
y

$$$$
>  <molecule>
O=C(Nc1ccc(Cl)cn1)c1cccc(S(=O)(=O)Cc2ccc(Cl)cc2)c1

>  <assigned-category>
n

$$$$
>  <molecule>
N#Cc1ccc(NC(=O)c2cccc(S(=O)(=O)Cc3ccc(Cl)cc3)c2)nc1

>  <assigned-category>
y

$$$$

* * *

Examples of compounds with documented inhibition at 10 µM follow.
Biological target: SIRT2 (Homo sapiens, UniProt Q8IXJ6)
Construct: recombinant active enzymes SIRT1, SIRT2, and the catalytically active fragment of SIRT3
Sequence (Q8IXJ6 1-389): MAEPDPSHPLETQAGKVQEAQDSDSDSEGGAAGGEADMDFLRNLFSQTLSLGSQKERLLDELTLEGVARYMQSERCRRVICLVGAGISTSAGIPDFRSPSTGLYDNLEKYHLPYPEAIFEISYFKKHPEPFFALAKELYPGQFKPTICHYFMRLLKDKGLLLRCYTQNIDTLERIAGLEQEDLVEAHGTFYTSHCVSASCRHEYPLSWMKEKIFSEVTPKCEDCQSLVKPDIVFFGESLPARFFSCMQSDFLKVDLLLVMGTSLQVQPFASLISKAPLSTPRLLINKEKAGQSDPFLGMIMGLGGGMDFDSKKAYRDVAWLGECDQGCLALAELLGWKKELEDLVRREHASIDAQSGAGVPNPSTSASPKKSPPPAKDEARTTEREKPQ
Experiment: Fluor-de-Lys biochemical sirtuin deacetylation assay, SIRT2
Conditions: 10 μM
Structures can show the parent of a compound that is named as a salt.

>  <compound>
CCOc1ccc(N(CC)S(=O)(=O)c2cccc(C(=O)Nc3ccc(C#N)cc3)c2)cc1 [Compound 203Az]

>  <inhibition at 10 µM, %>
59

$$$$
>  <compound>
CN(c1ccc(S(C)(=O)=O)cc1)S(=O)(=O)c1cccc(C(=O)Nc2ccc(Cl)cc2F)c1 [Compound 203Ae]

>  <inhibition at 10 µM, %>
26

$$$$
>  <compound>
CC(O)c1ccc([C@@H](C)Oc2cncc(C(=O)Nc3ccc(C#N)cc3)c2)cc1 (stereo partly drawn) [Compound 216Aq]

>  <inhibition at 10 µM, %>
0

$$$$
>  <compound>
CC(=O)c1ccc(C(C)Oc2cccc(C(=O)Nc3ccc(Br)cc3)c2)cc1 (stereo not drawn) [Compound 216Ba]

>  <inhibition at 10 µM, %>
85

$$$$
>  <compound>
CC(=O)c1ccc([C@@H](C)Oc2cccc(C(=O)Nc3ccc(C#N)cc3)c2)cc1 [Compound 216Ak]

>  <inhibition at 10 µM, %>
98

$$$$
>  <compound>
CC(=O)c1ccc(NC(=O)c2cncc(CN(Cc3ccc(F)c(F)c3)C3CC3)c2)cc1 [Compound 225u, hydrochloride]

>  <inhibition at 10 µM, %>
5

$$$$
>  <compound>
N#Cc1ccc(NC(=O)c2cccc(OCc3ccc(Cl)cn3)c2)cc1 [Compound 216n]

>  <inhibition at 10 µM, %>
34

$$$$
>  <compound>
CC(=O)c1ccc([C@H](C)Oc2cccc(C(=O)Nc3ccc(C#N)cc3)c2)cc1 [Compound 216Al]

>  <inhibition at 10 µM, %>
60

$$$$
>  <compound>
CC(=O)c1ccc(COc2cncc(C(=O)Nc3ccc(C#N)cc3)c2)cc1 [Compound 216u]

>  <inhibition at 10 µM, %>
0

$$$$
>  <compound>
N#Cc1ccc(NC(=O)c2cccc(CN(Cc3cc(F)cc(F)c3)C3CC3)c2)cc1 [Compound 225f, hydrochloride]

>  <inhibition at 10 µM, %>
64

$$$$
>  <compound>
CC(=O)c1ccc(C(C)Oc2cccc(C(=O)Nc3ccc(CC#N)cc3)c2)cc1 (stereo not drawn) [Compound 216Az]

>  <inhibition at 10 µM, %>
58

$$$$
>  <compound>
CSc1ccc(COc2cccc(C(=O)Nc3ccc(C#N)cn3)c2)cc1 [Compound 216b]

>  <inhibition at 10 µM, %>
22

$$$$

* * *

Measured inhibition at 10 µM of individual entries
Target: SIRT2 (Homo sapiens)
Construct: recombinant active enzymes SIRT1, SIRT2, and the catalytically active fragment of SIRT3
Sequence (Q8IXJ6 1-389): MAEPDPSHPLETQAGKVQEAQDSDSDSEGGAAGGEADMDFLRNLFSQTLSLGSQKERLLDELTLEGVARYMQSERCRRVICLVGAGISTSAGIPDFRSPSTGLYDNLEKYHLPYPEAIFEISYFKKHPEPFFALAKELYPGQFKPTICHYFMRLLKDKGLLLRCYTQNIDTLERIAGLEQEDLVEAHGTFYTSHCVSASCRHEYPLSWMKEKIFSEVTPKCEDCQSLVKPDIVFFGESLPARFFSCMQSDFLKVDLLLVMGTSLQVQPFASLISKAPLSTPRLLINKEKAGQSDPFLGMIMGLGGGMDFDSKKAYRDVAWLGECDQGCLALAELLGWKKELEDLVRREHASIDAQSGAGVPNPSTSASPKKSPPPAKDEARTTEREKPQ
Assay: Fluor-de-Lys biochemical sirtuin deacetylation assay, SIRT2
Settings: 10 μM
Where a name gives a salt, the structure may show the parent alone.
measured-attribute: inhibition at 10 µM (%)

>  <molecule>
CCCN(CCC)S(=O)(=O)c1cccc(C(=O)Nc2ccc(Br)cc2C)c1 [Compound 203c]

>  <reported>
0

$$$$
>  <molecule>
Cc1cc(Cl)ccc1N(C)C(=O)c1cccc(S(=O)(=O)N(C)c2ccc(Br)cc2)c1 [Compound 203l]

>  <reported>
25

$$$$
>  <molecule>
CN(c1ccc(S(C)(=O)=O)cc1)S(=O)(=O)c1cc(C(=O)Nc2ccc(C#N)cc2)ccn1 [Compound 203As]

>  <reported>
33

$$$$
>  <molecule>
N#Cc1ccc(COc2cccc(/C(N)=N\c3ccc(C#N)cc3)c2)cc1 [Compound 234b, hydrochloride]

>  <reported>
12

$$$$
>  <molecule>
CS(=O)(=O)c1ccc(COc2cccc(C(=O)Nc3ccc(C#N)cc3)c2)cc1 [Compound 216k]

>  <reported>
39

$$$$
>  <molecule>
CC(=O)c1ccc(CN(Cc2cncc(C(=O)Nc3ccc(C#N)cc3)c2)C2CC2)cc1 [Compound 225r, hydrochloride]

>  <reported>
10

$$$$
>  <molecule>
CN(c1ccc(Cl)cc1)S(=O)(=O)c1cccc(C(=O)Nc2ccc(Br)cc2F)c1 [Compound 203w]

>  <reported>
31

$$$$
>  <molecule>
O=C(Nc1ccc(Cl)cc1)c1cncc(CN(Cc2ccc(F)c(F)c2)C2CC2)c1 [Compound 225t, hydrochloride]

>  <reported>
9

$$$$
>  <molecule>
N#Cc1ccc(NC(=O)c2cccc(CN(Cc3ccc(C(F)(F)F)cc3)C3CC3)c2)cc1 [Compound 225e, hydrochloride]

>  <reported>
49

$$$$
>  <molecule>
CN(c1ccc(S(C)(=O)=O)cc1)S(=O)(=O)c1cccc(NC(=O)c2ccc(S(C)(=O)=O)cc2)c1 [Compound 207d]

>  <reported>
26

$$$$
>  <molecule>
N#Cc1ccc(NC(=O)c2cccc(CN(Cc3ccc(Br)cc3)C3CC3)c2)cc1 [Compound 225l, hydrochloride]

>  <reported>
37

$$$$
>  <molecule>
CC(O)c1ccc(C(C)Oc2cncc(C(=O)Nc3ccc(C#N)cc3)c2)cc1 (centres unmarked) [Compound 216Af]

>  <reported>
12

$$$$
>  <molecule>
CC(=O)c1ccc(C(C)Oc2cccc(C(=O)Nc3ccc(C(F)(F)F)cc3)c2)cc1 (centres unmarked) [Compound 216Bc]

>  <reported>
77

$$$$
>  <molecule>
CN(C(=O)c1cccc(S(=O)(=O)N(C)c2ccc(Br)cc2)c1)c1ccc(F)cc1F [Compound 203t]

>  <reported>
17

$$$$
